# SYSTEM_NAME: Intercellular adhesion molecule (ICAM-1), Integrin alpha-L/beta-2 (Homo sapiens, UniProt P05107+P20701)
# Sequence (P20701 whole entry): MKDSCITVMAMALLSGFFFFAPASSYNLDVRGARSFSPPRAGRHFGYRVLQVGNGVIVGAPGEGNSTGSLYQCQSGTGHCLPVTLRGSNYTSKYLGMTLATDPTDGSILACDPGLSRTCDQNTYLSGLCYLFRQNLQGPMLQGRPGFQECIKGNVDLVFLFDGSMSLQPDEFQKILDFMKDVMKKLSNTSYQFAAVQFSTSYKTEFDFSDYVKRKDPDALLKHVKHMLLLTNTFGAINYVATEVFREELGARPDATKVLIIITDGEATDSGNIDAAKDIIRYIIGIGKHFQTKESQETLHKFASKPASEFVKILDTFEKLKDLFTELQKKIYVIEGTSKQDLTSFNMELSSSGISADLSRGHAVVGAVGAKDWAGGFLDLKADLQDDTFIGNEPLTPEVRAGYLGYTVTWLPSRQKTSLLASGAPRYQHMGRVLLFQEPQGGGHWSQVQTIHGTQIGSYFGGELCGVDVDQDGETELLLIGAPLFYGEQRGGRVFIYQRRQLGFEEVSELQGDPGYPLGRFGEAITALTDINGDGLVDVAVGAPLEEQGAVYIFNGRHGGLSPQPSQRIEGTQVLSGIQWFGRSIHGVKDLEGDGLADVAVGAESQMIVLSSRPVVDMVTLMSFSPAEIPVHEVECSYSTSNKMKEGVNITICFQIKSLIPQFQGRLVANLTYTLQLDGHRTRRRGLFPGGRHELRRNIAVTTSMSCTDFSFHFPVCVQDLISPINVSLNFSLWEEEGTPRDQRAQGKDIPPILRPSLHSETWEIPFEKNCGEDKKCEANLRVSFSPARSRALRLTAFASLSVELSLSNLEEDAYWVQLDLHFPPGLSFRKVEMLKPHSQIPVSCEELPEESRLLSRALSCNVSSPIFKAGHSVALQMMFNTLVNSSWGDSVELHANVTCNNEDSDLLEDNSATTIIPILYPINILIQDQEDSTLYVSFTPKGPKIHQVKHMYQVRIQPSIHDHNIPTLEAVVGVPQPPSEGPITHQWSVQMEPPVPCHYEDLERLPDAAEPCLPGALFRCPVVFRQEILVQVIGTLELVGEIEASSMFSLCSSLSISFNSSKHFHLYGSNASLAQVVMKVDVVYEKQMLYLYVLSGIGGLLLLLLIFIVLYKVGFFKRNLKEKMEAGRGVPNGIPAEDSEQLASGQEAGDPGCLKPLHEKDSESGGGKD
# Sequence (P05362 whole entry, further chain): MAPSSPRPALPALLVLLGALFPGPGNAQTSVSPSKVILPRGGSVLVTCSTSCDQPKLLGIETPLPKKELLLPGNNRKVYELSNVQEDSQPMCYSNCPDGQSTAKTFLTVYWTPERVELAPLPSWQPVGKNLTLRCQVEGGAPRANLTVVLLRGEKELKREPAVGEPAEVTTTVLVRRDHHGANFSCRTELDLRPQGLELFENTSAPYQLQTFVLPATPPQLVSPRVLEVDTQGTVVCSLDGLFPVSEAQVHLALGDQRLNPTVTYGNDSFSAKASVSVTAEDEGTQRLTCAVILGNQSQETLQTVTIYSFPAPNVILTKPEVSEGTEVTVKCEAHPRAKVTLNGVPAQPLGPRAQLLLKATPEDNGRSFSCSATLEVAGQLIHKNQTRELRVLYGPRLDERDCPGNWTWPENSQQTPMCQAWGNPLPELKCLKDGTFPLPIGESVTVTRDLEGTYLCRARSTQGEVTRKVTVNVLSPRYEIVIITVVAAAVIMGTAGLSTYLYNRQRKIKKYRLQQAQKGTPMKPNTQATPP
# Sequence (P05107 whole entry): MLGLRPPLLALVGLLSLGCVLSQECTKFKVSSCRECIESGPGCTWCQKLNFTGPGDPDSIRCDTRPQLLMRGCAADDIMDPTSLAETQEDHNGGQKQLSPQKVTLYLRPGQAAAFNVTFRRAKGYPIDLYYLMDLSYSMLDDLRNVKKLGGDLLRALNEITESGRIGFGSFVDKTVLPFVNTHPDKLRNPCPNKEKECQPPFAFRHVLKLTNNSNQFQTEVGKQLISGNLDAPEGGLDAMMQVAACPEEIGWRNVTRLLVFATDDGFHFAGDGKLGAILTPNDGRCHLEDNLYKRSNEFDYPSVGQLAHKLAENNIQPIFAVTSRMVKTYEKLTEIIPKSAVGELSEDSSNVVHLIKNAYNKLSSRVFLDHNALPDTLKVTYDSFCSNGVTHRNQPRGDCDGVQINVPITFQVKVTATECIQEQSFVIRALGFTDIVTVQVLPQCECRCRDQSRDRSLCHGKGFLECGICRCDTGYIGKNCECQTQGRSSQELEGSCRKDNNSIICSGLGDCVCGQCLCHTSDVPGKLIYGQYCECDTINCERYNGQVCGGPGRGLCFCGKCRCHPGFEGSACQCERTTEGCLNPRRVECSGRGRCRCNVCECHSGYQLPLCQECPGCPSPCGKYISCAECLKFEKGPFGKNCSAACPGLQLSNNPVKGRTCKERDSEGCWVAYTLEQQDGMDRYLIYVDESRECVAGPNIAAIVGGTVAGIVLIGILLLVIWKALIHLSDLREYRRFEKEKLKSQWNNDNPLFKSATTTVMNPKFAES
MEASUREMENT_KIND: pIC50
Lab note — pIC50 values are minus log10 of concentrations in M.

[ask] Give a short answer stating reported pIC50 for COc1ccccc1Sc1ccc(/C=C/C(=O)N2CCC(C(=O)O)CC2)c(C(F)(F)F)c1C(F)(F)F .
[reply] 10.00

---

# SYSTEM_NAME: UniProt P20701
# RUN_DESCRIPTION: Inhibition of intercellular adhesion molecule-1 (ICAM-1) binding to recombinant LFA-1, range(30-60)
MEASUREMENT_KIND: pIC50
Lab note — pIC50 values are minus log10 of concentrations in M.

[ask] Send back UniProt P20701 pIC50 of CC(=O)N1CCN(C(=O)/C=C/c2ccc(Sc3ccc4c(c3)OCCO4)c(Cl)c2)CC1 only.
[reply] 7.40
